apparent KD of MS2 coat protein listing for selected sequences.
tested on: MS2 coat protein; experiment: apparent KD of MS2 coat protein; designed switch direction (-1 OFF switch, 1 ON switch): -1; higher = weaker reporter binding; details: input ligand: microRNA oligo, concentration not stated
Numeric answer only, unit nM assumed.

Previously resolved entries follow.
>>> reported_value("UGUCAGAUGGUAGGAUAUCCCUAUCGCGUGUCCCUUUCCUAACAUGAGGAUCACCCAUGUCGGUGGGAGAAGGGCCGUAUGGUG [salish99_ExNG02_R04_036] (Eterna round: R96, puzzle: Exclusion NG 2)")
13.6
>>> reported_value("CUUGCGGACAAAGGAUAUUGCGGUGACCGGCUCGGCGUACCGAGCCUACAUGAGGAUCACCCAUGUAAGAAGGUUGACGCUGGU [JL ViennaUCT Qudice mod 4] (Eterna round: R96, puzzle: Exclusion NG 2)")
20
>>> reported_value("AAGGGUGCUUUCGGAACGACAUGAGGAUCACCCAUGUAGACUGAGGAUAUCUACUUCUAAGGACGGGAGAAGGCAGUGUAAUGU [Ex NG3 #70] (Eterna round: R96, puzzle: Exclusion NG 3)")
29

Entry GCGCACCUACCAAAAGGUAGGUCCACAUGAGGAUCACCCAUGUAGGAUAUCGAUUGCUUUGCAGUCGAGAAGGACAUGAUGCGC [JL ENG3 3.80 Mod 10] (Eterna round: R96, puzzle: Exclusion NG 3) , apparent KD of MS2 coat protein reported as 18.1

Entry GACGCUGACCGAGGAUAUACAAUAAAACAACAAACACCUCGUGUCAGAACAUGAGGAUCACCCAUGUAGAAGGCGGCAGGUCUA [Teateus] (Eterna round: R96, puzzle: Exclusion NG 2) , apparent KD of MS2 coat protein reported as 31.6

All values here come from the supplement of paper PMC9170038.
